These entries and their values trace back to patent US20120046308A1.

The reader will find reported EC50 values listed item by item below.
- system.tested: human PPARγ2 (Homo sapiens, UniProt P37231)
- Construct: the amino acids 182 to 505 of human PPARγ2; expressed in transfected cells; host or cells: COS7 cells (African green monkey kidney)
- Sequence (P37231 182-505): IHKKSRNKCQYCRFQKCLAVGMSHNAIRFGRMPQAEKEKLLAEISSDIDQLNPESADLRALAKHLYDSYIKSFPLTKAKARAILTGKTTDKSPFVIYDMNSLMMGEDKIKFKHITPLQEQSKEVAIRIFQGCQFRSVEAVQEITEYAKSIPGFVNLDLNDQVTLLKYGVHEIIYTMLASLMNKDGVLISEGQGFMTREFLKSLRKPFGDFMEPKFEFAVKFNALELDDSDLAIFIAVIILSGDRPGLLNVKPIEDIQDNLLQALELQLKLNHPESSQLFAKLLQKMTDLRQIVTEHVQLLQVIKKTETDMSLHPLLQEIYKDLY
- experimental.details: PPARγ activation activity, Gal4-PPARγ2 LBD luciferase transfection assay using COS7 cells
- Assay type: cell-based
- condition.notes: COS7 cells, 16 hours, luciferase activity relative to rosiglitazone = 100%; read-out: EC50
Record the result as a number with its unit.

Answered examples (2):
| compound | EC50 |
| --- | --- |
| CCCCc1nc(C)n(-c2ncc(OC)cn2)c(=O)c1Cc1cc(CCC)c(OC(C(=O)O)c2ccccc2)c(CCC)c1 (single isomer, unassigned; (-)) [Example 16] | 1460 nM |
| CCCCc1nc(C)n(-c2ccc(OCc3ccccc3)cc2)c(=O)c1Cc1cc(CCC)c(OC(C(=O)O)c2ccccc2)c(CCC)c1 (stereo not shown) | 440 nM |

Q: Find the recorded EC50 belonging to CCCCc1nc(C)n(-c2ncc(OCCSC)cn2)c(=O)c1Cc1cc(CCC)c(OC(C(=O)O)c2ccccc2)c(CCC)c1 (stereo not shown) and report it.
A: 1340 nM

Q: Input CCCCc1nc(C)nc(OCCOC)c1Cc1cc(CCC)c(OC(C(=O)O)c2ccccc2)c(CCC)c1 (stereo not shown)
A: 2400 nM
